Cited source for all entries: ChEMBL document CHEMBL4321872

experimental.protocol: Half life in C57BL/6J mouse at 20 mg/kg, sc by LC-MS/MS analysis
Assay type: ADME, organism-based
reported.conditions: in vivo
Bridge positions count the residues as written; N and C are the ends. Side chains are listed from the residue outwards. Peptide text beside a SMILES is read from it. * marks the point of attachment. PEG8 = NCCOCCOCCOCCOCCOCCOCCOCCOCCC(=O)O; Palmitoyl = CCCCCCCCCCCCCCCC(=O)*
property.label: half-life (h)
Report only the number, with the unit h understood.

Task: Please give measured half-life of the following entry: CCCCCCCCCCCCCCCC(=O)NCCOCCOCCOCCOCCOCCOCCOCCOCCC(=O)NCCCC[C@H](NC(=O)CNC(=O)[C@@H]1CSSC[C@H](N)C(=O)N[C@@H](Cc2ccc(O)cc2)C(=O)N[C@@H]([C@@H](C)CC)C(=O)N[C@@H](CCC(N)=O)C(=O)N[C@@H](CC(N)=O)C(=O)N1)C(=O)NCC(N)=O (H-CYIQNCGK([PEG8-Palmitoyl])G-NH2; disulfide 1-6)
Output: 20
